List of IC50 values.
system: pBAD in KMS.12.BM cells; assay: Pim pBAD signaling assay in KMS.12.BM cells (Example B); format: cell-based; settings: Homo sapiens, 2.5 h incubation, pBAD ELISA

- Line Notation: "CC(C)c1cnc2ccc(C(=O)Nc3cnccc3N3C[C@@H](N)[C@H](O)[C@@H](C)C3)nc2c1"
  IC50: "≤ 50 nM"
- Line Notation: "C[C@H]1CN(c2ccncc2NC(=O)c2ccc3ncc(N4CCOCC4)cc3n2)C[C@@H](N)[C@@H]1O"
  IC50: "≤ 50 nM"
- Line Notation: "C[C@H]1CN(c2ccncc2NC(=O)c2ccc3ccc(N4CCC(C#N)CC4)cc3n2)C[C@@H](N)[C@@H]1O"
  IC50: "≤ 50 nM"
- Line Notation: "C[C@H]1CN(c2ccncc2NC(=O)c2ccc3ccc(-c4ccc(N5CCOCC5)nc4)cc3n2)C[C@@H](N)[C@@H]1O"
  IC50: "≤ 50 nM"

Exercise: For `N[C@@H]1CN(c2ccncc2NC(=O)c2ccc3ncc(N4CCC5(CCCO5)CC4)cc3n2)C[C@H](C2CC2)[C@H]1O` , what is its reported IC50?
Key: 50 to 250 nM

Exercise: Also check `COc1cc(F)c(-c2cnc3ccc(C(=O)Nc4cnccc4N4C[C@@H](N)[C@H](O)[C@@H](C5CC5)C4)nc3c2)c(F)c1`
Key: ≤ 50 nM

Exercise: Repeat with `C[C@@H]1C[C@H](N)CN(c2ccncc2NC(=O)c2ccc3ccc(N4CCCC4)cc3n2)C1`
Key: 50 to 250 nM

Exercise: Then this compound: `C[C@@H]1C[C@H](N)CN(c2ccncc2NC(=O)c2ccc3ncc(C4CCOCC4)cc3n2)C1`
Key: ≤ 50 nM

Exercise: Could you do the same for `C[C@@H]1C[C@H](N)CN(c2ccncc2NC(=O)c2ccc3ccc(N4CCOCC4)cc3n2)C1` , please?
Key: ≤ 50 nM

Exercise: What do we get for `C[C@H]1CN(c2ccncc2NC(=O)c2ccc3ccc(N4CCC(N5CCOCC5)CC4)cc3n2)C[C@@H](N)[C@@H]1O` ?
Key: 50 to 250 nM

Exercise: Now the same for `C[C@@H]1C[C@H](N)CN(c2ccncc2NC(=O)c2ccc3ccc(N4CCC(C#N)CC4)cc3n2)C1`
Key: 50 to 250 nM

Exercise: # repeat for `C[C@@H]1C[C@H](N)CN(c2ccncc2NC(=O)c2ccc3ccc(N4CCC4)cc3n2)C1`
Key: 50 to 250 nM

---

system: pBAD in KMS.12.BM cells; test: Pim pBAD signaling assay in KMS.12.BM cells (Example B); type: cell-based; conditions: Homo sapiens, 2.5 h incubation, pBAD ELISA
pIC50: −log10 of the molar value.
Assay Metric: pIC50

Exercise: Need pIC50 of `COc1ccc(-c2ccc3ccc(C(=O)Nc4cnccc4N4C[C@@H](N)[C@H](O)[C@@H](C)C4)nc3c2)cn1` , thanks.
Key: ≥ 7.30

Exercise: Check `C[C@H]1CN(c2ccncc2NC(=O)c2ccc3ccc(N4CCC(c5ccncc5)CC4)cc3n2)C[C@@H](N)[C@@H]1O` too.
Key: 6.60 to 7.30

---

Form field: pIC50 (one value per entry).
test system: pBAD in KMS.12.BM cells; assay: Pim pBAD signaling assay in KMS.12.BM cells (Example B); type: cell-based; conditions: Homo sapiens, 2.5 h incubation, pBAD ELISA
pIC50: −log10 of the molar value.

- Compound: "COC1CCN(c2ccc3ccc(C(=O)Nc4cnccc4N4C[C@@H](N)[C@H](O)[C@@H](C)C4)nc3c2)CC1 [Example 24]"
  pIC50: "≥ 7.30"
- Compound: "C[C@H]1CN(c2ccncc2NC(=O)c2ccc3ccc(-c4cccnc4)cc3n2)C[C@@H](N)[C@@H]1O [Example 47]"
  pIC50: "≥ 7.30"
- Compound: "C[C@H]1CN(c2ccncc2NC(=O)c2ccc3ccc(-c4ccc(OC5CCOCC5)nc4)cc3n2)C[C@@H](N)[C@@H]1O [Example 52]"
  pIC50: "6.60 to 7.30"

Exercise: What measured pIC50 goes with COC1CCN(c2ccc3ccc(C(=O)Nc4cnccc4N4C[C@H](C)C[C@H](N)C4)nc3c2)CC1 [Example 25] ?
Key: ≥ 7.30

Exercise: Proceed to CCN1CCN(c2ccc3ccc(C(=O)Nc4cnccc4N4C[C@@H](N)[C@H](O)[C@@H](C)C4)nc3c2)CC1=O [Example 22]
Key: ≥ 7.30

Exercise: Also, CCc1ccc2ccc(C(=O)Nc3cnccc3N3C[C@@H](N)[C@H](O)[C@@H](C)C3)nc2c1 [Example 9] please.
Key: ≥ 7.30

Exercise: Record: C[C@@H]1C[C@H](N)CN(c2ccncc2NC(=O)c2ccc3ccc(N4CCN(C)CC4)cc3n2)C1 [Example 19]
Key: 5.70 to 6.60

---

Measured IC50 (Pim-2 (Homo sapiens (Human), UniProt Q9P1W9))

// solved cases for IC50 follow
- Line Notation: "CC(C)c1cnc2ccc(C(=O)Nc3cnccc3N3C[C@H](C)C[C@H](N)C3)nc2c1"
  Assay Target: "Pim-2 (Homo sapiens (Human), UniProt Q9P1W9)"
  IC50: "≤ 100 nM"
- Line Notation: "CCN1CCN(c2ccc3ccc(C(=O)Nc4cnccc4N4C[C@@H](N)[C@H](O)[C@@H](C)C4)nc3c2)CC1=O"
  Assay Target: "Pim-2 (Homo sapiens (Human), UniProt Q9P1W9)"
  IC50: "≤ 100 nM"
- Line Notation: "CC(C)c1cnc2ccc(C(=O)Nc3cnccc3N3C[C@@H](N)[C@H](O)[C@@H](C)C3)nc2c1"
  Assay Target: "Pim-2 (Homo sapiens (Human), UniProt Q9P1W9)"
  IC50: "≤ 100 nM"
- Line Notation: "CCc1ccc2ccc(C(=O)Nc3cnccc3N3C[C@@H](N)[C@H](O)[C@@H](C)C3)nc2c1"
  Assay Target: "Pim-2 (Homo sapiens (Human), UniProt Q9P1W9)"
  IC50: "100 to 1000 nM"
- Line Notation: "C[C@H]1CN(c2ccncc2NC(=O)c2ccc3ccc(-c4ccc(OC5CCOCC5)nc4)cc3n2)C[C@@H](N)[C@@H]1O"
  Assay Target: "Pim-2 (Homo sapiens (Human), UniProt Q9P1W9)"
  IC50: "≤ 100 nM"

Exercise: Quick one: IC50 of `N#Cc1ccccc1-c1cnc2ccc(C(=O)Nc3cnccc3N3C[C@@H](N)C[C@@H](C(F)(F)F)C3)nc2c1` ?
Key: ≤ 100 nM

Exercise: Here is the next compound: `CCn1cc(-c2cnc3ccc(C(=O)Nc4cnccc4N4C[C@H](C)C[C@H](N)C4)nc3c2)cn1`
Key: 100 to 1000 nM

Exercise: Now try `C[C@H]1CN(c2ccncc2NC(=O)c2ccc3ncc(N4CCOCC4)cc3n2)C[C@@H](N)[C@@H]1O` .
Key: 100 to 1000 nM

Exercise: `C[C@@H]1C[C@H](N)CN(c2ccncc2NC(=O)c2ccc3ncc(-c4c(F)cccc4F)cc3n2)C1` , same question.
Key: ≤ 100 nM

Exercise: Repeat for the following compound: `C[C@H]1CN(c2ccncc2NC(=O)c2ccc3ccc(N4CC(C)(C)C4)cc3n2)C[C@@H](N)[C@@H]1O`
Key: 100 to 1000 nM

Exercise: Another: `C[C@@H]1C[C@H](N)CN(c2ccncc2NC(=O)c2ccc3ccc(N4CCC(C#N)CC4)cc3n2)C1`
Key: 100 to 1000 nM

Exercise: Entry to check: `C[C@H]1CN(c2ccncc2NC(=O)c2ccc3ccc(-c4ccc(N5CCOCC5)nc4)cc3n2)C[C@@H](N)[C@@H]1O`
Key: ≤ 100 nM

Exercise: Another compound to check: `COc1ccc(-c2ccc3ccc(C(=O)Nc4cnccc4N4C[C@@H](N)[C@H](O)[C@@H](C)C4)nc3c2)cn1`
Key: ≤ 100 nM

Exercise: Same read-out for `COc1cc(F)c(-c2cnc3ccc(C(=O)Nc4cnccc4N4C[C@H](C)C[C@H](N)C4)nc3c2)c(F)c1` ?
Key: ≤ 100 nM

Exercise: Would you mind doing `C[C@H]1CN(c2ccncc2NC(=O)c2ccc3ccc(N4CCC(C#N)CC4)cc3n2)C[C@@H](N)[C@@H]1O` as well?
Key: ≤ 100 nM

Exercise: Could you do the same for `C[C@H]1CN(c2ccncc2NC(=O)c2ccc3ccc(N4CCN(C)CC4)cc3n2)C[C@@H](N)[C@@H]1O` , please?
Key: 100 to 1000 nM

Exercise: Same again, this time with `C[C@H]1CN(c2ccncc2NC(=O)c2ccc3ccc(N4CCCC4)cc3n2)C[C@@H](N)[C@@H]1O`
Key: ≤ 100 nM

Exercise: Again, but for `CCn1cc(-c2cnc3ccc(C(=O)Nc4cnccc4N4C[C@@H](N)[C@H](O)[C@@H](C5CC5)C4)nc3c2)cn1`
Key: ≤ 100 nM

Exercise: Repeat with `Cn1cc(-c2cnc3ccc(C(=O)Nc4cnccc4N4C[C@@H](N)[C@H](O)[C@@H](C5CC5)C4)nc3c2)cn1`
Key: ≤ 100 nM

Exercise: Repeat for the following compound: `COC1CCN(c2ccc3ccc(C(=O)Nc4cnccc4N4C[C@H](C)C[C@H](N)C4)nc3c2)CC1`
Key: ≤ 100 nM

Exercise: Param item: `N#CC1CCN(c2cnc3ccc(C(=O)Nc4cnccc4N4C[C@@H](N)[C@H](O)[C@@H](C5CC5)C4)nc3c2)CC1`
Key: 1000 to 10000 nM
